Tested target: human β3 adrenergic receptor (Homo sapiens, UniProt P13945)
Construct: expressed in transfected cells; host or cells: Chinese hamster ovary (CHO) cells, stably transfected
Sequence (P13945 whole entry): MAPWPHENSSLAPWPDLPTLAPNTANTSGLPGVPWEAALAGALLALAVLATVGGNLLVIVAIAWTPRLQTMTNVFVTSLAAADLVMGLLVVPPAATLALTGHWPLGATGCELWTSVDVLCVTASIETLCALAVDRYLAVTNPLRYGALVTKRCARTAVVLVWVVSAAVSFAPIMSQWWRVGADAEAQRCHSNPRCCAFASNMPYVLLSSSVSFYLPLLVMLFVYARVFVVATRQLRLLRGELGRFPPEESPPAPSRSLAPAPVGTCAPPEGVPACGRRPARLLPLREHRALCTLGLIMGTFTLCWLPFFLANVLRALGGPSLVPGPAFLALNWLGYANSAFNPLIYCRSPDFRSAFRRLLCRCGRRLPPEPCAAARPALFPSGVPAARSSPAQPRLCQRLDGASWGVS
Experiment: Functional assay: cAMP production (LANCE TR-FRET) in CHO cells stably transfected with cloned β3 adrenergic receptor
Assay type: cell-based
Assay setup: Table 11; read-out: Human β3 Functional
pEC50: −log10 of the molar value.
Value type: pEC50

Below, each entry is followed by its recorded pEC50 result.
- Molecule: "O=C(Nc1ccc(C[C@@H]2CC[C@H]([C@H](O)c3ccc(F)cc3)N2)cc1)[C@@H]1CCc2scnc21"
  Tested target: "human β3 adrenergic receptor (Homo sapiens, UniProt P13945)"
  Value type: "pEC50"
  Result: "> 9.00"
- Molecule: "CC(C(=O)Nc1ccc(CC2CCC(C(O)c3ccc(F)cc3)N2)cc1)c1cscn1 (single isomer, unassigned) [Example 286]"
  Tested target: "human β3 adrenergic receptor (Homo sapiens, UniProt P13945)"
  Value type: "pEC50"
  Result: "> 9.00"
- Molecule: "O=C(Cn1ncccc1=O)Nc1ccc(C[C@@H]2CC[C@H]([C@H](O)c3ccc(F)cc3)N2)cc1"
  Tested target: "human β3 adrenergic receptor (Homo sapiens, UniProt P13945)"
  Value type: "pEC50"
  Result: "8.00 to 9.00"
- Molecule: "Nc1nc2c(s1)CCC2C(=O)Nc1ccc(CC2CCC(C(O)c3ccc(F)cc3)N2)cc1 (single isomer, unassigned) [Example 283]"
  Tested target: "human β3 adrenergic receptor (Homo sapiens, UniProt P13945)"
  Value type: "pEC50"
  Result: "> 9.00"
- Molecule: "CC(C(=O)Nc1ccc(CC2CCC(C(O)c3ccc(F)cc3)N2)cc1)c1cscn1 (single isomer, unassigned) [Example 285]"
  Tested target: "human β3 adrenergic receptor (Homo sapiens, UniProt P13945)"
  Value type: "pEC50"
  Result: "7.00 to 7.96"

Please find the next molecule below.
stdin: Look up pEC50: Nc1nc2c(s1)CCC2C(=O)Nc1ccc(CC2CCC(C(O)c3ccc(F)cc3)N2)cc1 (single isomer, unassigned) [Example 282]
stdout: 7.00 to 7.96

* * *

Tested target: human β3 adrenergic receptor (Homo sapiens, UniProt P13945)
Construct: expressed in transfected cells; host or cells: Chinese hamster ovary (CHO) cells, stably transfected
Experiment: Functional assay: cAMP production (LANCE TR-FRET) in CHO cells stably transfected with cloned β3 adrenergic receptor
Type: cell-based
Assay setup: human β3 functional activity, shown as ranges; Table 13; read-out: Human β3 Functional
pEC50: −log10 of the molar value.
# maps each entry to its pEC50

Solved cases (3 shown):
- Molecule: "O=C(Cn1ncccc1=O)Nc1ccc(C[C@@H]2CC[C@H]([C@H](O)c3cccc(Cl)c3)N2)cc1 [Example 305]"
  Tested target: "human β3 adrenergic receptor (Homo sapiens, UniProt P13945)"
  pEC50: "7.00 to 7.96"
- Molecule: "Nc1nc2c(s1)CCC2C(=O)Nc1ccc(CC2CCC(C(O)c3cccc(Cl)c3)N2)cc1 (single isomer, unassigned) [Example 294]"
  Tested target: "human β3 adrenergic receptor (Homo sapiens, UniProt P13945)"
  pEC50: "7.00 to 7.96"
- Molecule: "Nc1nc(CC(=O)Nc2ccc(C[C@@H]3CC[C@H]([C@H](O)c4cccc(Cl)c4)N3)cc2)cs1 [Example 304]"
  Tested target: "human β3 adrenergic receptor (Homo sapiens, UniProt P13945)"
  pEC50: "8.00 to 9.00"

stdin: Can you share its pEC50? I mean this molecule: O=C(Nc1ccc(CC2CCC(C(O)c3cccc(Cl)c3)N2)cc1)C1CCc2sc(F)nc21 (single isomer, unassigned) [Example 300]
stdout: 8.00 to 9.00

stdin: Next molecule: CC(C(=O)Nc1ccc(CC2CCC(C(O)c3cccc(Cl)c3)N2)cc1)c1cscn1 (single isomer, unassigned) [Example 303]
stdout: 7.00 to 7.96

stdin: What do you have for Nc1nc2c(s1)CCC2C(=O)Nc1ccc(CC2CCC(C(O)c3cccc(Cl)c3)N2)cc1 (single isomer, unassigned) [Example 295] ?
stdout: > 9.00
